TEST_SYSTEM: hMT1 (Homo sapiens)
Sequence (P48039 whole entry): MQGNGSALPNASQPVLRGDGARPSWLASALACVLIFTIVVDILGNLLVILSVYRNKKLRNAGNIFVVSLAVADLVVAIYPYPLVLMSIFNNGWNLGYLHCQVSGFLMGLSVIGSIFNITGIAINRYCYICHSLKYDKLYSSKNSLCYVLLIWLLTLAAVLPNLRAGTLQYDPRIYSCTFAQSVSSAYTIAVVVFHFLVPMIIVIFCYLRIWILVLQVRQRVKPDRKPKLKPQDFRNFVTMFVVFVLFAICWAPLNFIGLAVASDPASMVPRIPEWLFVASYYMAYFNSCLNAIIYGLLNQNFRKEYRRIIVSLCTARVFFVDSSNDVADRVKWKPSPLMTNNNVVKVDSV
TEST_SUMMARY: cAMP assay (GloSensor), isoproterenol-stimulated cAMP in HEK cells
Format: cell-based
Design: expressed in transfected cells; host or cells: HEK-T (HEK-293 T) cells, co-transfected with GloSensor DNA
CONDITION_SUMMARY: inverse agonist, increase of basal cAMP; read-out: EC50 at MT1
Record form. Attribute: pEC50. Fill in for each entry.
Answers are plain numbers, as −log10 of the molar value.

| MOL_SMILES | ENDPOINT_VALUE |
| --- | --- |
| CC(C)c1ccc(CNc2cccc(-c3ncn[nH]3)c2)cc1 | 7.68 |

Next, consider the following molecule.
QUERY: Value wanted: pEC50 (hMT1 (Homo sapiens)) of entry Clc1ccc(CNc2cccc(-c3nnc[nH]3)c2)c(Br)c1
RESULT: 7.39

Where do the numbers come from? From patent US20230052740A1.
